- TARGET: full-length beta-Catenin (Uniprot ID P35222) (Homo sapiens (Human)) (UniProt P35222)
- Sequence (P35222 whole entry): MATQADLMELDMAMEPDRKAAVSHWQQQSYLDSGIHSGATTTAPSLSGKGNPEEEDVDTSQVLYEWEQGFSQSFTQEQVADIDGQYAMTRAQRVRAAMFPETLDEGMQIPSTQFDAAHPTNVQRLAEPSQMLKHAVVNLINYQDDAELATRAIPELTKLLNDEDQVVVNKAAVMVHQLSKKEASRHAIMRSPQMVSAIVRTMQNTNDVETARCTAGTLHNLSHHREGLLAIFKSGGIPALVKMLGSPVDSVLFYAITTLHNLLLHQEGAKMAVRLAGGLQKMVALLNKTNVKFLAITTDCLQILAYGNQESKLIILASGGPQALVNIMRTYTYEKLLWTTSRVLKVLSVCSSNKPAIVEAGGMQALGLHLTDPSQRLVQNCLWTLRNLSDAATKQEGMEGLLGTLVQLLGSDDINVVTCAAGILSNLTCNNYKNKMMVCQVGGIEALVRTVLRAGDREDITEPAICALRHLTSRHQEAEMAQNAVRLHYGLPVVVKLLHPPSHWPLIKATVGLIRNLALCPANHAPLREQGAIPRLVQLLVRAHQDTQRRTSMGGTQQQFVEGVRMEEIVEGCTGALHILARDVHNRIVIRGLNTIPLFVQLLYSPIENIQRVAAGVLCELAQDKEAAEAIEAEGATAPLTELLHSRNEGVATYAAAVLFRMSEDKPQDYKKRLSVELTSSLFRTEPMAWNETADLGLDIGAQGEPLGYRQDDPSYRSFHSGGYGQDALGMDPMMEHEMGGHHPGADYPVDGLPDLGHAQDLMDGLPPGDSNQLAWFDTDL
- ASSAY_TEXT: fluorescence polarization competition; displacement of 5FAM-TCF4(10-53) from full-length beta-catenin
pIC50: −log10 of the molar value. Starred links: 1 amine or outer side, 2 acyl side, 3 side chain; linkers in the order of their positions; H or OH if unused. Positions of bridges follow the written chain, without caps; N, C: chain ends. Non-standard residues stand in square brackets, D forms with d. Primed or numbered codes have the meaning given here. PyrS2″ = (S)-3-amino-1-((pent-4-en-1-yloxy)carbonyl)pyrrolidine-3-carboxylic acid (stapling residue), C=CCCCOC(=O)N1CC[C@@](N[*:1])(C(=O)[*:2])C1; PyrS2 = (S)-3-amino-1-((pent-4-en-1-yloxy)carbonyl)pyrrolidine-3-carboxylic acid, C=CCCCOC(=O)N1CC[C@@](N[*:1])(C(=O)[*:2])C1; B5(27) = 2-amino-2-(pent-4-en-1-yl)hept-6-enoic acid (two alkene side-chain arms), C=CCCCC(CCCC=C)(N[*:1])C(=O)[*:2]; F2PipNva = (S)-2-amino-5-(4,4-difluoropiperidin-1-yl)pentanoic acid, O=C([C@H](CCCN1CCC(F)(F)CC1)N[*:1])[*:2]; F2PipAbu = (S)-2-amino-4-(4,4-difluoropiperidin-1-yl)butanoic acid, O=C([C@H](CCN1CCC(F)(F)CC1)N[*:1])[*:2]; B5(3) = 2,2-bis(4-pentenyl)glycine (stitching residue), C=CCCCC(CCCC=C)(N[*:1])C(=O)[*:2]; Bta = N[C@@H](Cc1csc2ccccc12)C(=O)O; αAllylPro = C=CC[C@@]1(C(=O)O)CCCN1; tBuAla = CC(C)(C)C[C@H](N)C(=O)O; 3Thi = N[C@@H](Cc1ccsc1)C(=O)O; Cha = N[C@@H](CC1CCCCC1)C(=O)O; Cit = NC(=O)NCCC[C@H](N)C(=O)O
Below: a set of entries, each annotated with reported pIC50.

BINDER	pIC50
Ac-[αAllylPro]D[tBuAla][B5(3)]DNAAFN[PyrS2″][3Thi][Bta]H-NH2 (staple 1-4, 4-11) [I-837]	8.30
Ac-[αAllylPro]D[tBuAla][B5(3)]DD[F2PipNva]AFL[PyrS2″][3Thi][Bta]Q-NH2 (staple 1-4, 4-11) [I-1482]	8.15
Ac-[αAllylPro]D[tBuAla][B5(3)]DDAAFS[PyrS2″][Cha][Bta]S-NH2 (staple 1-4, 4-11) [I-1106]	7.64
Ac-[αAllylPro]D[tBuAla][B5(3)]D[Cit]AAFN[PyrS2″][3Thi][Bta]H-NH2 (staple 1-4, 4-11) [I-841]	7.92
Ac-[αAllylPro]D[tBuAla][B5(27)]DDA[F2PipAbu]FL[PyrS2][3Thi][Bta]Q-NH2 (staple 1-4, 4-11) [I-1505: Ac-PL3-Asp-Npg-B5-Asp-Asp-Ala-F2PipAbu-Phe-Leu-PyrS2-3Thi-BztA-Gln-NH2]	7.41
